Provenance of the data: the Immune Epitope Database (IEDB)

- Test Target: HLA-A*29:02
- Method: IEDB peptide-MHC binding, purified MHC/direct/fluorescence; filed as Kd, often an IC50 or EC50 that approximates it; bounds were set here for any values at or beyond the usual limits of such assays
- Assay Context: source organism: Brucella suis 1330
Experimental Readout: Kd

Query: Kd; subject: MHCDFAFWV
≥ 20 µM

---

- Test Target: HLA-B*40:01
- Method: IEDB peptide-MHC binding, purified MHC/direct/fluorescence; filed as Kd, often an IC50 or EC50 that approximates it; bounds were set here for any values at or beyond the usual limits of such assays
- Assay Context: source organism: Mycobacterium tuberculosis
Experimental Readout: pKd
Quick note: pKd values are minus log10 of concentrations in mol/L.

// returns reported pKd for input NEIRALMAL
7.74

---

- Test Target: HLA-B*08:02
- Method: IEDB peptide-MHC binding, purified MHC/direct/fluorescence; filed as Kd, often an IC50 or EC50 that approximates it; bounds were set here for any values at or beyond the usual limits of such assays
- Assay Context: source organism: Vibrio cholerae
Experimental Readout: Kd

Query: Kd; subject: VLKLRFWLI
≥ 20 µM

---

- Test Target: HLA-B*27:05
- Method: IEDB peptide-MHC binding, purified MHC/direct/fluorescence; filed as Kd, often an IC50 or EC50 that approximates it; bounds were set here for any values at or beyond the usual limits of such assays
- Assay Context: source organism: Camelpox virus CMS
Experimental Readout: Kd (nM)
Write the number in nM without appending the unit.

Please report the recorded Kd for WQFAIHYSF .
277

---

- Test Target: HLA-A*02:01
- Method: IEDB peptide-MHC binding, purified MHC/competitive/radioactivity; filed as Kd, often an IC50 or EC50 that approximates it; bounds were set here for any values at or beyond the usual limits of such assays
- Assay Context: source organism: Hepatitis B virus
pKd: −log10 of the molar value.
Experimental Readout: pKd

Lab note: need pKd with HLA-A*02:01 for entry LSRYVARL , please look it up.
≤ 4.30

---

- Test Target: HLA-A*02:02
- Method: IEDB peptide-MHC binding, purified MHC/competitive/radioactivity; filed as Kd, often an IC50 or EC50 that approximates it; bounds were set here for any values at or beyond the usual limits of such assays
- Assay Context: source organism: Triticum aestivum
Experimental Readout: pKd
When answering, recall that pKd equals minus log10 of the concentration in mol/L, and write that number alone.

Item under review: SQVSFQQPL . Reported pKd?
8.35

---

- Test Target: HLA-A*68:02
- Method: IEDB peptide-MHC binding, purified MHC/competitive/fluorescence; bounds were set here for any values at or beyond the usual limits of such assays
- Assay Context: source organism: Homo sapiens
Experimental Readout: pIC50
# pIC50 is unitless: minus log10 of the molar concentration; print number only

Notebook entry, HLA-A*68:02 assay: pIC50 of KVADVDLAVPV = ?
7.61

---

- Test Target: HLA-C*12:03
- Method: IEDB peptide-MHC binding, purified MHC/direct/fluorescence; filed as Kd, often an IC50 or EC50 that approximates it; bounds were set here for any values at or beyond the usual limits of such assays
- Assay Context: source organism: Vaccinia virus L-IPV
Experimental Readout: pKd
Keep it numeric: pKd is minus log10 of the concentration in mol/L.

pKd for RLYDYFTRV ?
6.03

---

- Test Target: HLA-A*11:01
- Method: IEDB peptide-MHC binding, purified MHC/direct/fluorescence; filed as Kd, often an IC50 or EC50 that approximates it; bounds were set here for any values at or beyond the usual limits of such assays
- Assay Context: source organism: Lake Victoria marburgvirus - Popp
Experimental Readout: pKd
pKd is a log-scale quantity: -log10 of the concentration expressed in molar.

Any idea what its pKd is? The sequence is KNYPASLHK
7.04

---

- Test Target: HLA-B*15:01
- Method: IEDB peptide-MHC binding, purified MHC/direct/fluorescence; filed as Kd, often an IC50 or EC50 that approximates it; bounds were set here for any values at or beyond the usual limits of such assays
- Assay Context: source organism: Reston ebolavirus - Reston
Please provide measured Kd for the entries that follow.
Return type: number; implicit unit µM.

# input sequence: WQQWDRQSL ; wanted: its Kd
0.127

What Kd value was documented for this sequence, QAFEAGIDF ?
0.0766

---

- Test Target: HLA-A*31:01
- Method: IEDB peptide-MHC binding, purified MHC/direct/fluorescence; filed as Kd, often an IC50 or EC50 that approximates it; bounds were set here for any values at or beyond the usual limits of such assays
- Assay Context: source organism: West Nile virus
pKd: −log10 of the molar value.
Experimental Readout: pKd

Form field: reported pKd of VHREWFMDL
≤ 4.70

---

- Test Target: HLA-B*15:01
- Method: IEDB peptide-MHC binding, purified MHC/competitive/fluorescence; filed as Kd, often an IC50 or EC50 that approximates it; bounds were set here for any values at or beyond the usual limits of such assays
- Assay Context: source organism: Orthohantavirus puumalaense
pKd: −log10 of the molar value.
Experimental Readout: pKd

Can you share its pKd? I mean this sequence: SPVMGVIGF
≤ 4.70

---

- Test Target: HLA-B*35:01
- Method: IEDB peptide-MHC binding, purified MHC/competitive/fluorescence; filed as Kd, often an IC50 or EC50 that approximates it; bounds were set here for any values at or beyond the usual limits of such assays
- Assay Context: source organism: Camelpox virus M-96
Experimental Readout: pKd
Field pKd (float): negative decimal logarithm of the concentration in molar.

What value of pKd has been recorded for this entry: LMDENTYAM
9.70

---

- Test Target: HLA-A*03:01
- Method: IEDB peptide-MHC binding, purified MHC/competitive/fluorescence; filed as Kd, often an IC50 or EC50 that approximates it; bounds were set here for any values at or beyond the usual limits of such assays
- Assay Context: source organism: Escherichia coli 536
Experimental Readout: Kd (nM)
Enter your answer as a number in nM; do not include the unit.

State the recorded Kd for this entry: KIPATVIAR
31

Which Kd value is on record for VLGYSRMLY ?
90.3

---

- Test Target: HLA-B*08:01
- Method: IEDB peptide-MHC binding, purified MHC/competitive/fluorescence; filed as Kd, often an IC50 or EC50 that approximates it; bounds were set here for any values at or beyond the usual limits of such assays
- Assay Context: source organism: Escherichia coli
Experimental Readout: pKd
Please note pKd is a logarithmic value: minus log10 of concentration in mol/L. Answer with that number alone.

Bench note: what pKd did HLAGYSGVL show?
5.72

---

- Test Target: HLA-B*51:01
- Method: IEDB peptide-MHC binding, purified MHC/competitive/radioactivity; filed as Kd, often an IC50 or EC50 that approximates it; bounds were set here for any values at or beyond the usual limits of such assays
- Assay Context: source organism: Dengue virus 2 Jamaica/1409/1983
Experimental Readout: Kd (nM)
Number in nM, nothing else.

Form: Entry = QPHWIAASI | System = HLA-B*51:01 | Kd = ____
477

---

Kindly state pKd for each of the entries shown.
- Test Target: HLA-B*35:01
- Method: IEDB peptide-MHC binding, purified MHC/competitive/radioactivity; filed as Kd, often an IC50 or EC50 that approximates it; bounds were set here for any values at or beyond the usual limits of such assays
- Assay Context: source organism: Mammarenavirus lassaense
Note on units: pKd is unitless, being -log10 of a concentration expressed in mol/L.

Param item = CPNSYDSIM ; retrieve measured pKd.
8.09

Recorded pKd for FPSIFSTEV , please?
7.01

---

- Test Target: HLA-B*18:01
- Method: IEDB peptide-MHC binding, purified MHC/direct/fluorescence; filed as Kd, often an IC50 or EC50 that approximates it; bounds were set here for any values at or beyond the usual limits of such assays
- Assay Context: source organism: Burkholderia mallei
Experimental Readout: Kd

Look up Kd for this sequence: EPFSRRHPL
≥ 20 µM

---

- Test Target: HLA-A*32:01
- Method: IEDB peptide-MHC binding, purified MHC/competitive/radioactivity; filed as Kd, often an IC50 or EC50 that approximates it; bounds were set here for any values at or beyond the usual limits of such assays
- Assay Context: source organism: Dengue virus 2 Peru/IQT2913/1996
Experimental Readout: pKd
As a rule, pKd stands for the negative log10 of the concentration, concentration in M.

Field request: pKd | item: TVMAFHLTT
4.72

---

- Test Target: HLA-A*02:01
- Method: IEDB peptide-MHC binding, purified MHC/competitive/radioactivity; filed as Kd, often an IC50 or EC50 that approximates it; bounds were set here for any values at or beyond the usual limits of such assays
- Assay Context: source organism: Hepacivirus hominis
pKd: −log10 of the molar value.
Experimental Readout: pKd

Which measured pKd value corresponds to HSKKKCDDL ?
≤ 4.16

---

- Test Target: HLA-B*15:02
- Method: IEDB peptide-MHC binding, purified MHC/direct/fluorescence; filed as Kd, often an IC50 or EC50 that approximates it; bounds were set here for any values at or beyond the usual limits of such assays
- Assay Context: source organism: Salmonella enterica subsp. enterica serovar Typhimurium str. LT2
Experimental Readout: Kd (nM)
Report the value in nM with no unit label.

Give its Kd value. Item: MQQSGDEAF
32
